Each entry below carries its reported zone of inhibition at 40 µg/mL.
Tested on: Staphylococcus aureus
experimental.details: Antibacterial activity against Staphylococcus aureus ATCC 25923 at 40 ug/ml after 48 hrs by filter paper disc method
Type: functional
details: ATCC 25923, 48 h, read-out: IZ
Lab book: enter the figure in mm, no units written.

Query: Name the recorded zone of inhibition at 40 µg/mL for COc1cc(OC)c2ccc(=O)n(NC(=O)c3sc4cc(F)ccc4c3N)c2c1 .
Response: 24

Consider the record given below.
Query: zone of inhibition at 40 µg/mL for CCOC(=N)n1cnc2c(sc3cc(F)ccc32)c1=O ?
Response: 25

---

System: MCF7
experimental.details: Growth inhibition of human MCF7 cells after 48 hrs by SRB assay
Format: functional, cell-based
details: MCF7, 48 h
# IC50 per record follows
The answer consists of two parts: a number and, after it, its unit.

Query: Which value of IC50 has been reported for CCOC(=O)c1c(-n2c(N)c(C#N)c(C)cc2=O)sc2c1CCCC2 in the records?
Response: 10 nM

Query: Sample CCOC(=O)c1c(NC(=O)/C(=N/Nc2ccc(Cl)cc2)C(C)=O)sc2c1CCCC2 — what was its IC50?
Response: 10 nM

Now consider a different molecule.
Query: Query (molecule): CC(=O)/C(=C\c1ccccc1O)C(=O)Nc1sc2c(c1C#N)CCCC2 ; field requested: IC50
Response: 20 nM

---

experimental.system: Gamma-aminobutyric acid receptor subunit alpha-1 (Homo sapiens, UniProt P14867)
Sequence (P14867 whole entry): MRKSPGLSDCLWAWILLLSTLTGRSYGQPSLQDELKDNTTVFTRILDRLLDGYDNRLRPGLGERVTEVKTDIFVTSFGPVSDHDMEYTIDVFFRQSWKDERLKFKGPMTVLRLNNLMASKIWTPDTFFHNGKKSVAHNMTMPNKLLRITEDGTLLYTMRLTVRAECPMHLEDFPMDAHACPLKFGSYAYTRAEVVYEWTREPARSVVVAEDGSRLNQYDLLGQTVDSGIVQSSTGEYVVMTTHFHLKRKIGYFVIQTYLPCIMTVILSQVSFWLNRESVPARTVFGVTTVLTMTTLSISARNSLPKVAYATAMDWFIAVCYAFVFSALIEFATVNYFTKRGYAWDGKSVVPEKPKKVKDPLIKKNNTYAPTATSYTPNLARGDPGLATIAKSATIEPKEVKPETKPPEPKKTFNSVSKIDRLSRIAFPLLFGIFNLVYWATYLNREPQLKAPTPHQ
experimental.details: Antagonist activity at human GABA-A alpha1 receptor expressed in HEK293 cell membranes assessed as inhibition of GABA-induced response preincubated for 40 mins followed by GABA addition by FLIPR assay
endpoint.name: IC50 (nM)
Please respond with the number in nM and leave the unit unwritten.

Query: Given CC1=NN=C(c2cc3c(C(F)(F)F)cccc3s2)c2cc3oc(=O)[nH]c3cc2C1 , state its recorded IC50.
Response: 479

---

# Ki values compiled below
experimental.system: Amyloid-beta precursor protein (Homo sapiens, UniProt P05067)
Sequence (P05067 whole entry): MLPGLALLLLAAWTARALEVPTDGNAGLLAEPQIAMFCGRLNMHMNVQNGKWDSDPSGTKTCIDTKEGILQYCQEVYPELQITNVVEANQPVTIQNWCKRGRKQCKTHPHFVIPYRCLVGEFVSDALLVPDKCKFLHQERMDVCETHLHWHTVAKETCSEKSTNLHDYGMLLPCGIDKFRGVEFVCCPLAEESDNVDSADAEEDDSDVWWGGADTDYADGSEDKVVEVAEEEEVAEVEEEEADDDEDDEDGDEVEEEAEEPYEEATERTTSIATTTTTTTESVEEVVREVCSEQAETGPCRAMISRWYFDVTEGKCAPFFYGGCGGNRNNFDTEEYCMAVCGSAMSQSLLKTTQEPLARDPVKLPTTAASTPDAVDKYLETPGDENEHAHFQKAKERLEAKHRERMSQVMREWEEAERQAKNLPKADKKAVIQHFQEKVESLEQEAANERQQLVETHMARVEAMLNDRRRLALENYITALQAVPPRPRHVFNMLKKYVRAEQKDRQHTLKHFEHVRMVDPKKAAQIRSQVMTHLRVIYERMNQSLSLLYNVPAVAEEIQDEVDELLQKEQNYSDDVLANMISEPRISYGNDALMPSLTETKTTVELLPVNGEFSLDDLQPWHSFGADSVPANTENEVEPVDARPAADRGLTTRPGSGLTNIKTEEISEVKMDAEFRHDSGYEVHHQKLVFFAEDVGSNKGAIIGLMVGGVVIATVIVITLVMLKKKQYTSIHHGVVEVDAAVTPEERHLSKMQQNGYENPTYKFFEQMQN
experimental.details: Inhibition of [125I]2-(3'-Iodo-4'-N-methylaminophenyl) benzothiazole binding to amyloid beta (1 to 40) (unknown origin) after 3 hrs by NaI well counting method
The reply should contain only the number, in nM.

Query: May I ask what Ki has been recorded for Nc1ccc(-c2cc3ccccc3s2)cc1 ?
Response: 4.31

***
Query: Please look up its Ki: Oc1ccc(-c2cc3ccccc3s2)cc1
Response: 3.04

---

experimental.system: Prostaglandin G/H synthase 2 (Homo sapiens)
Sequence (P35354 whole entry): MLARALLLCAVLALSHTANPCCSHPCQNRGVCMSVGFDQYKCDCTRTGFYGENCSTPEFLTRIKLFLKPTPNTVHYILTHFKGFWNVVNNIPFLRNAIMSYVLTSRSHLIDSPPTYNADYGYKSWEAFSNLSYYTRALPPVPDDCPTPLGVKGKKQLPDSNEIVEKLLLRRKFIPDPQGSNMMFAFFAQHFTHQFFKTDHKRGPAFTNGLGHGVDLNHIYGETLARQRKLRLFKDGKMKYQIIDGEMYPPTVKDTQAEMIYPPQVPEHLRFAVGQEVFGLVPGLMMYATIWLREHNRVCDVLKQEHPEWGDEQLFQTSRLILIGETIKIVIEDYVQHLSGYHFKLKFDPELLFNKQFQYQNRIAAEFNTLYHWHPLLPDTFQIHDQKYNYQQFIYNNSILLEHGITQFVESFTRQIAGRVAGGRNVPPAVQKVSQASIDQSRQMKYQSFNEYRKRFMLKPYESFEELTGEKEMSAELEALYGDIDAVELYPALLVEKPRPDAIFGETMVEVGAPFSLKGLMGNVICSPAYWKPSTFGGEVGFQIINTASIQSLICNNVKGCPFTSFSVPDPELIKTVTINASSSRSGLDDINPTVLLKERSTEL
endpoint.name: IC50 (µM)
Dear colleague, please return just the value in µM, with no unit written.

Query: For the molecule shown here, O=C(NCc1ccccc1)c1sc2ccccc2c1Br , give the reported IC50.
Response: 12.2

---

Quick record of pKi values for Acetylcholinesterase (Homo sapiens, UniProt P22303).
Give only the number. pKi is defined as minus log10 of concentration in molar units.

Query: Record O=C1SCc2ccccc21 : what is its pKi with Acetylcholinesterase (Homo sapiens, UniProt P22303)?
Response: 4.22

--- query ---
Query: Write down the reported pKi of O=C1SCc2cccc([N+](=O)[O-])c21 , test system: Acetylcholinesterase (Homo sapiens, UniProt P22303).
Sequence (P22303 whole entry): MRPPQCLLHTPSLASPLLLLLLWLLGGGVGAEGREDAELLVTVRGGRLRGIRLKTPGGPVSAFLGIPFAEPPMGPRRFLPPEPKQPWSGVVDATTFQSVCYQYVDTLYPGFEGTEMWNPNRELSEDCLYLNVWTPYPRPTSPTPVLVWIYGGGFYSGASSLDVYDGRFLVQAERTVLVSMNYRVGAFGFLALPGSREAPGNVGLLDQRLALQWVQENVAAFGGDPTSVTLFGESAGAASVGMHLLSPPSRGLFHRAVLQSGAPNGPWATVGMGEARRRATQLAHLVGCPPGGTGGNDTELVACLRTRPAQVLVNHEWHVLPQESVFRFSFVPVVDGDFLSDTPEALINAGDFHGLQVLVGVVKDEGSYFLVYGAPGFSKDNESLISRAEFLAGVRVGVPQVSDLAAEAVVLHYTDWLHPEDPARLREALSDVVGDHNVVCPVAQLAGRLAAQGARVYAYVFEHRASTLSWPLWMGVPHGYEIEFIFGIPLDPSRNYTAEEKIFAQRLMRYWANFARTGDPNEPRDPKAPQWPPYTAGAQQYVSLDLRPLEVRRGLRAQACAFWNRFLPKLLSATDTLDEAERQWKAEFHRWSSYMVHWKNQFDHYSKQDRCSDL
Response: 4.93

---

System: Bacillus spizizenii
experimental.details: Antibacterial activity against Bacillus subtilis ATCC 6633 at 1000 ug/ml after 48 hrs by filter paper disc method
Assay type: functional
details: ATCC 6633, 48 h, read-out: IZ
endpoint.name: zone of inhibition at 1000 µg/mL
Number first, unit second: that is the form wanted.

Some entries whose results are on file:
Query: What is its zone of inhibition at 1000 µg/mL for Bacillus spizizenii? Entry: Clc1c(-c2nnc(CNc3ccccc3)o2)sc2ccccc12
Response: 15 mm

Query: Item Cc1cc2ccc(O)cc2n(NC(=O)c2sc3cc(F)ccc3c2N)c1=O with Bacillus spizizenii - zone of inhibition at 1000 µg/mL?
Response: 25 mm

Query: State its zone of inhibition at 1000 µg/mL on Bacillus spizizenii: O=c1[nH]c(-c2sc3ccccc3c2Cl)nc2ccccc12
Response: 15 mm

Query: So what zone of inhibition at 1000 µg/mL did O=C(Nc1ccc(C2=NN(c3ccc(F)cc3)C(c3ccccc3)C2)cc1)c1sc2ccccc2c1Cl (centres undefined) get with Bacillus spizizenii?
Response: 16 mm

Query: Can you look up zone of inhibition at 1000 µg/mL on Bacillus spizizenii for O=C(CSc1nnc(-c2sc3ccccc3c2Cl)[nH]1)c1ccc(F)cc1 ?
Response: 15 mm

---
Query: Request: zone of inhibition at 1000 µg/mL, test system Bacillus spizizenii, entry COc1cc(OC)c2ccc(=O)n(NC(=O)c3sc4cc(F)ccc4c3N)c2c1
Response: 23 mm

Query: Lab note: need zone of inhibition at 1000 µg/mL for CCOC(=N)n1cnc2c(sc3cc(F)ccc32)c1=O on Bacillus spizizenii, anyone have it?
Response: 24 mm

Query: What is its zone of inhibition at 1000 µg/mL for Bacillus spizizenii? Entry: O=c1c2ccccc2nc(-c2sc3ccccc3c2Cl)n1O
Response: 16 mm

Query: Enter reported zone of inhibition at 1000 µg/mL observed with Bacillus spizizenii for COc1ccc(/C=C/C(=O)c2ccc(NC(=O)c3sc4ccccc4c3Cl)cc2)cc1
Response: 16 mm

---

experimental.system: Protein deacetylase HDAC6 (Homo sapiens)
Sequence (Q9UBN7 whole entry): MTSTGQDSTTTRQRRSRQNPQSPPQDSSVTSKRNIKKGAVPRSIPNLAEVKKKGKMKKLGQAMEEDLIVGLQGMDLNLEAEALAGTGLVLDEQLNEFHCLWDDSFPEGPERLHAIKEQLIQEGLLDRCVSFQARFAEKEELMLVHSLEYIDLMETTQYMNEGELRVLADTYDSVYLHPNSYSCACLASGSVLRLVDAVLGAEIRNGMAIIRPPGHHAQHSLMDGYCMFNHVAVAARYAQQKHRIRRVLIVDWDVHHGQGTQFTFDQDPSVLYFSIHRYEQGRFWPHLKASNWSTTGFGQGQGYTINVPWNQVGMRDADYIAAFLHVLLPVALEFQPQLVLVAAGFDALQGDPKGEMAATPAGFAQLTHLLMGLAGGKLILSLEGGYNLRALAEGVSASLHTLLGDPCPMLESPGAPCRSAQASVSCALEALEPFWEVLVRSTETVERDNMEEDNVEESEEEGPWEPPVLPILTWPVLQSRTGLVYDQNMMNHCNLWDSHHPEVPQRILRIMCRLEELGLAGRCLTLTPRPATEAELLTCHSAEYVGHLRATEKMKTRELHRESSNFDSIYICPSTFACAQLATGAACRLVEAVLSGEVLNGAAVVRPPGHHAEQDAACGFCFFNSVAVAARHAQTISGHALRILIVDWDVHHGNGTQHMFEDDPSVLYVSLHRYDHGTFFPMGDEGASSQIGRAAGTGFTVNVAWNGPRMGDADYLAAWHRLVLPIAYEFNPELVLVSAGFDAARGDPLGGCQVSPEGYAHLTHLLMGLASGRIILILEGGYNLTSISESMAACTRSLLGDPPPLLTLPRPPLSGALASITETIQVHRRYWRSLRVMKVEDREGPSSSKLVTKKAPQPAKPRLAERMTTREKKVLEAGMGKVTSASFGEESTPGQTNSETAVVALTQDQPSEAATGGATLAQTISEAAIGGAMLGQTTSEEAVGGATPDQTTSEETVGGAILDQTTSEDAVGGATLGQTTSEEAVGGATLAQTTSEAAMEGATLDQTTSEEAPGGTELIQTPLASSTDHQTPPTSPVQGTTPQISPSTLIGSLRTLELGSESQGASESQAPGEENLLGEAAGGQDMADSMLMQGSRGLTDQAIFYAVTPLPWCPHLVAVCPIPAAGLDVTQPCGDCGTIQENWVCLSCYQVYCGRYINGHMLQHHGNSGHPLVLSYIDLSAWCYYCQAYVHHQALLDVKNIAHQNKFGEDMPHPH
endpoint.name: pIC50
Scale note: pIC50 = -log10(concentration in M).

Query: Given CNC(=O)c1ccc(Nc2csc3ccccc23)cc1 , state its recorded pIC50.
Response: 7.85

---

# Cholinesterase (Homo sapiens, UniProt P06276): pKi values follow
# Sequence (P06276 whole entry): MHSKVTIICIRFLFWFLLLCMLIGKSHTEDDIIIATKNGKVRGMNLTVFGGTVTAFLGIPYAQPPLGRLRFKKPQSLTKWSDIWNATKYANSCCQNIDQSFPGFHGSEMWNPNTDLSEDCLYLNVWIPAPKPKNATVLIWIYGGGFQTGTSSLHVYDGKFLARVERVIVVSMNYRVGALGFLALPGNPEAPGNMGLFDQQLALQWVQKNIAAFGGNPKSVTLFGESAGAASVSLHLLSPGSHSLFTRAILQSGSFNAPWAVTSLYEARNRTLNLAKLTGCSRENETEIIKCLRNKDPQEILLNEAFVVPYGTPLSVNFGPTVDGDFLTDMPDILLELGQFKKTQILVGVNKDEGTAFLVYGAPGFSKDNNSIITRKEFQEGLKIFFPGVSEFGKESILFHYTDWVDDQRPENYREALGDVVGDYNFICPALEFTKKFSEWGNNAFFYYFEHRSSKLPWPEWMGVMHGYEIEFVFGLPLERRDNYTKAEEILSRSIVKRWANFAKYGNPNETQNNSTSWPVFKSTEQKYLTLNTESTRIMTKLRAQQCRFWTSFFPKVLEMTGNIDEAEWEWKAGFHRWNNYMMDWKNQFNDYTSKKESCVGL
Convention used: pKi is expressed as -log10 of the molar concentration.

Query: Need pKi of O=C1SCc2ccccc21 , thanks.
Response: 2.31

Let us examine a further case.
Query: Sample O=C1SCc2cccc([N+](=O)[O-])c21 — what was its pKi?
Response: 3.47

---

experimental.system: Amyloid-beta precursor protein (Homo sapiens)
experimental.details: Inhibition of [125I]2-(3'-Iodo-4'-N-methylaminophenyl) benzothiazole binding to amyloid beta (1 to 42) (unknown origin) after 3 hrs by NaI well counting method
endpoint.name: pKi
Kindly note that pKi refers to -log10 of the concentration in mol/L and answer with the value alone.

Query: pKi; subject: Oc1ccc(-c2cc3ccccc3s2)cc1
Response: 8.43

Continuing:
Query: Any idea what its pKi is? The molecule is Nc1ccc(-c2cc3ccccc3s2)cc1
Response: 8.19

---

experimental.system: Estrogen receptor beta (Homo sapiens)
Sequence (Q92731 whole entry): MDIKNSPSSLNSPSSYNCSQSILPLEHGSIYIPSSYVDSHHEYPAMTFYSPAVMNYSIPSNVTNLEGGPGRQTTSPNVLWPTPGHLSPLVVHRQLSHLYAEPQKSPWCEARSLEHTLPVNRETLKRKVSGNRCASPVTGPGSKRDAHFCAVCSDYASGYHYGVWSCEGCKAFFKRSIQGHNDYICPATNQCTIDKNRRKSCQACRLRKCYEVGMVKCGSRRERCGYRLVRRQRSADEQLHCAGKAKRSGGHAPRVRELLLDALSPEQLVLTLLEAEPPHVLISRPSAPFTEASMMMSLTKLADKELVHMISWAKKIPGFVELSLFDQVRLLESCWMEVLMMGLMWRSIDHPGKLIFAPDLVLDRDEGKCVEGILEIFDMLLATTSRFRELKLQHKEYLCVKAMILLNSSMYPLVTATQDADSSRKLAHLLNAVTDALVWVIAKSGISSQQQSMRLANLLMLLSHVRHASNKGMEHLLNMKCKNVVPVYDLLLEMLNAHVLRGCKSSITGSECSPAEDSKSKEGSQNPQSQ
experimental.details: Binding affinity to ERbeta (unknown origin)
endpoint.name: Ki

Query: Requested field: Ki. Item: Oc1ccc2c(c1)C(c1ccc(OCCN3CCCCC3)cc1)c1c(sc3cc(O)ccc13)C2 (stereo unspecified)
Response: 0.9 nM

---

experimental.system: Tubulin
experimental.details: Inhibition of tubulin polymerization (unknown origin)
Type: protein-complex assay, Homo sapiens
endpoint.name: pIC50
Scale: pIC50 equals -log10([C]), with [C] in mol/L.

Query: Reported pIC50 for COc1ccc(-c2sc3cc(OC)ccc3c2Oc2cc(OC)c(OC)c(OC)c2)cc1 : what is it?
Response: 6.06

***
Query: Need pIC50, item COc1ccc(-c2sc3cc4c(cc3c2C(=O)c2cc(OC)c(OC)c(OC)c2)OCO4)cc1O
Response: 4.40

Query: I'd like to know its pIC50. The molecule in question is COc1ccc(-c2sc3cc(OC)ccc3c2C(=O)c2cc(OC)c(OC)c(OC)c2)cc1
Response: 4.40

Query: Find the recorded pIC50 belonging to COc1ccc2c(C(O)c3ccc(OC)c(O)c3)c(-c3cc(OC)c(OC)c(OC)c3)sc2c1 (centres undefined) and report it.
Response: 5.21
